- Tested on: MCF7
- testDetails: NCI tumour cell line growth inhibition, 48 h
Activity calls are given as the source filed them. Rule as the data show it: active = GI50 up to about 1.1 µM and inactive = higher.
# output must be one of active, inactive

Examples from the recorded data:
Incoming: Call for entry Cc1cc2ccccc2n1CC(=O)N1CCCC1 :
Outgoing: inactive

Incoming: Call for entry O=C(O)c1nn(-c2ccccc2)nc1-c1nn(-c2ccccc2)nc1C(=O)O :
Outgoing: inactive

Incoming: Call for entry COc1ccc(/N=[N+](\[O-])c2ccc(OC)cc2)cc1 :
Outgoing: inactive

Incoming: Call for entry CCSc1ncnc2c(C3OC(CO)C(O)C3O)nsc12 (centres undefined) :
Outgoing: inactive

Incoming: Call for entry CC(=S)N/C=C1/C(=O)C=C(C)OC1=O :
Outgoing: inactive

Incoming: Call for entry COc1ccc2c(c1)CCCc1c-2nc2ccccc2c1N :
Outgoing: inactive

Further cases:
Incoming: Call for entry NCCc1nc(-c2nc(C(=O)O)cs2)cs1 :
Outgoing: inactive

Incoming: Call for entry COc1ccc(NC2=NCCO2)c2ccccc12 :
Outgoing: inactive

Incoming: Call for entry CC1(c2nc3ccccc3[nH]2)CCC(C(N)=O)C(C)(C)O1 (centres undefined) :
Outgoing: inactive

Every entry's value here was drawn from ChEMBL document CHEMBL1201862.
